# experimentDescription: chemical genetic growth profiling, strain panel (AID 1159580);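 further: tested at 20 µM; growth read once vehicle control cultures reached saturation at 30 °C; lower values mean less growth of the strain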
# settings: S. cerevisiae deletion strains, growth OD, locus YLR330W, strain CHS5
Out of some 5,500 compounds screened, about 2,000 (36%) were called active. Inconclusive results (about 18%) are left out. No stated cut-off is given here; in the data, active means normalized growth mostly below about 0.91 (no sharp cut-off); inconclusive means no clear call, values can overlap the other calls; inactive means mostly above about 0.92. The list shows a part of the results.
Field 'call' accepts YES (active), NO (inactive)

CC(C)Oc1ccc2c(=O)cc(-c3ccccc3)oc2c1	YES
CN1CCN2c3ccccc3Cc3ccccc3C2C1 (stereo not given)	NO
Cn1c(=O)c2[nH]c(C3CCCC3)nc2n(C)c1=O	NO
CC(=O)O[C@H]1C[C@H](O[C@H]2[C@@H](O)C[C@H](O[C@H]3[C@@H](O)C[C@H](O[C@H]4CC[C@@]5(C)C(CCC6C5C[C@@H](O)[C@]5(C)[C@@H](C7=CC(=O)OC7)CC[C@]65O)C4)O[C@@H]3C)O[C@@H]2C)O[C@H](C)[C@H]1O[C@@H]1O[C@H](CO)[C@@H](O)[C@H](O)[C@H]1O (stereo not given in full)	NO
COc1cc([C@@H]2c3cc4c(cc3C(O[C@@H]3O[C@@H]5CO[C@@H](c6cccs6)OC5[C@H](O)[C@H]3O)C3COC(=O)[C@@H]32)OCO4)cc(OC)c1O (stereo not given in full)	NO

Next molecule, please.
Which outcome was assigned to O=C(/C=C/c1ccccc1)c1ccc(O)cc1 in this test?
YES

====

# experimentDescription: chemical genetic growth profiling, strain panel (AID 1159580);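 further: tested at 20 µM; growth read once vehicle control cultures reached saturation at 30 °C; lower values mean less growth of the strain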
# settings: S. cerevisiae deletion strains, growth OD, locus YLL041C, strain sdh2
About 2,000 (36%) of roughly 5,500 compounds were called active. Another 18% or so got no clear call; they are omitted. No stated cut-off is given here; in the data, active means normalized growth mostly below about 0.91 (no sharp cut-off); inconclusive means no clear call, values can overlap the other calls; inactive means mostly above about 0.92. The list shows a part of the results.
Answer with one of the outcomes active, inactive

Some solved entries appear below for comparison.
CC(=O)N(O)CCCCCNC(=O)CCC(=O)N(O)CCCCCNC(=O)CCC(=O)N(O)CCCCCN	inactive
C=C1C2CC[C@@]3(C)[C@H](c4ccoc4)OC(=O)C[C@]13O[C@H]1CC(=O)C(C)(C)[C@H](C(O)C(=O)OC)[C@@]21C (stereo partly specified)	inactive

How did this test come out for O=c1cc(-c2cccc(O)c2)oc2ccc(O)cc12 ?
inactive

Query CC(=O)Oc1c(-c2ccccc2)oc2c(CC=C(C)C)c3c(c(OC(C)=O)c2c1=O)C=CC(C)(C)O3 next
active

Do the same for CCCCCCCCCCCCCCCC[n+]1ccccc1 please
active

Another: COc1c(O)cc2c(-c3ccccc3)cc(=O)oc2c1OC
inactive

Consider next the compound COc1cc([C@@H]2c3cc4c(cc3[C@H](OC(C)=O)[C@H]3COC(=O)[C@H]23)OCO4)cc(OC)c1OC in the same way.
inactive

Next compound up: C[N+]1(CCCCC[N+]2(C)CCCC2)CCCC1
inactive

Same read-out for CCOC(=O)C1C(C=C(C)C)C1(C)C (stereo unspecified) ?
inactive

Lookup CC1(C)O[C@@H]2CC3C4CCC5=CC(=O)C=C[C@]5(C)[C@@]4(F)[C@@H](O)C[C@]3(C)[C@]2(C(=O)CO)O1 (stereo partly specified)
inactive

====

# experimentDescription: chemical genetic growth profiling, strain panel (AID 1159580);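 further: tested at 20 µM; growth read once vehicle control cultures reached saturation at 30 °C; lower values mean less growth of the strain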
# settings: S. cerevisiae deletion strains, growth OD, locus YPR025C, strain CCL1
About 2,000 (36%) of roughly 5,500 compounds were called active. Not shown: some 18% with an inconclusive outcome. Rule as the data show it: active = normalized growth mostly below about 0.91 (no sharp cut-off); inconclusive = no clear call, values can overlap the other calls; inactive = mostly above about 0.92. This is one part of the list.
Give one outcome, nothing more. List: active, inactive

CC(C)(C)c1cc2nc(C(F)(F)F)cc(NNC(=O)c3ccc(Cl)cc3)n2n1	inactive
Cc1nc(-c2ccc(C(F)(F)F)cn2)[nH]c(=O)c1Cl	inactive
CC(C)c1ccc(-c2cc(=O)c3ccccc3o2)cc1	inactive
C#Cc1cccc(N=Cc2cc(Cl)cc(Br)c2O)c1	active
Fc1ccc(N/N=C\Cc2nnnn2-c2ccccc2)c(F)c1	inactive
N#CCC(=O)c1cccc(CSc2ccccc2Cl)c1	inactive
Clc1ccccc1N/N=C\Cc1nnnn1-c1ccccc1	inactive
CC(C)(C)c1csc(NC(=O)Nc2ccc(Cl)cc2)n1	inactive
O=C1Nc2ccccc2/C1=N/N=C\c1cc(Br)cc(Br)c1O	inactive
CC(C)CSc1nnc(CSCc2nc(-c3ccc(Cl)cc3)cs2)n1C	inactive

Just curious, what result did CC(C)(C)c1csc(NNC(=O)c2ccc(Cl)cc2)n1 get here?
inactive

Query O=C1Nc2ccccc2/C1=N/N=C\c1ccccc1Cl next
inactive
